- method-description: Biocompatibility, trypan blue assay
- Type: cell-based
- experimental-conditions: fresh human macrophages isolated from blood
value-type: viability at 24 h, 50 µg/ml

{"columns": ["molecule", "value-type", "assay-result"],
 "data": [
  ["CC(=O)O[C@@]12CO[C@@H]1C[C@H](O)[C@@]1(C)C(=O)[C@H](O)C3=C(C)[C@@H](OC(=O)[C@H](O)[C@@H](NC(=O)OC(C)(C)C)c4ccccc4)C[C@@](O)([C@@H](OC(=O)c4ccccc4)[C@H]21)C3(C)C [DTX, Docetaxel]", "viability at 24 h, 50 µg/ml", "~65%"]
]}

---

- method-description: Oral bioavailability and pharmacokinetics
- Format: in vivo, rabbits
- experimental-conditions: plasma, rabbit, 10 mg/kg, read-out: MRT0-inf_obs

{"columns": ["compound", "MRT inf / h"],
 "data": [
  ["CC(=O)O[C@@]12CO[C@@H]1C[C@H](O)[C@@]1(C)C(=O)[C@H](O)C3=C(C)[C@@H](OC(=O)[C@H](O)[C@@H](NC(=O)OC(C)(C)C)c4ccccc4)C[C@@](O)([C@@H](OC(=O)c4ccccc4)[C@H]21)C3(C)C", 26.2]
]}

---

- method-description: Oral bioavailability and pharmacokinetics
- Assay type: in vivo, rabbits
- experimental-conditions: plasma, rabbit, 10 mg/kg
value-type: Tmax

{"columns": ["compound", "assay-result"],
 "data": [
  ["CC(=O)O[C@@]12CO[C@@H]1C[C@H](O)[C@@]1(C)C(=O)[C@H](O)C3=C(C)[C@@H](OC(=O)[C@H](O)[C@@H](NC(=O)OC(C)(C)C)c4ccccc4)C[C@@](O)([C@@H](OC(=O)c4ccccc4)[C@H]21)C3(C)C", "5 h"]
]}
